Target protein (sequence): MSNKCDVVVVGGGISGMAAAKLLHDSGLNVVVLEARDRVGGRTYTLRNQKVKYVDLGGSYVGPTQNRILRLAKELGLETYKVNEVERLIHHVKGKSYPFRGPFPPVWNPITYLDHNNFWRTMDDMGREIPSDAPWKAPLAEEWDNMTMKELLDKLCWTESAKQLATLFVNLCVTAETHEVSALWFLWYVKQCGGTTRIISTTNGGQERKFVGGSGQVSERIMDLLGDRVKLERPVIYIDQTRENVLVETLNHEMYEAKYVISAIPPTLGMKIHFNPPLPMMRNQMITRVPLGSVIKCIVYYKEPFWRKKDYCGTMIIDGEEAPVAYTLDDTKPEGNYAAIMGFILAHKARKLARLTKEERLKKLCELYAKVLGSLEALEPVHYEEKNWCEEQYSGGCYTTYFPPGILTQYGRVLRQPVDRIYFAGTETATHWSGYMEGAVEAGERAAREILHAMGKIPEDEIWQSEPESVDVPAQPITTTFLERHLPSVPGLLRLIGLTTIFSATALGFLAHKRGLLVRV
The following compounds are listed with their measured pIC50 values.
pIC50 (log units): -log10 of the concentration in mol/L.

Below, each entry is followed by its recorded pIC50 result.
Ask | // lookup pIC50 for CC(C)(C)c1cc(/C=C/C(=O)NC2CCN(Cc3ccccc3)CC2)cc(C(C)(C)C)c1O
Reply | 4.47

Ask | And then Cc1ccccc1CN1CCC(CCNC(=O)/C=C/c2cc(C(C)(C)C)c(O)c(C(C)(C)C)c2)CC1 , what is it?
Reply | 5.14

---
Ask | // lookup pIC50 for CC(C)(C)c1cc(/C=C/C(=O)NCC2CCN(Cc3ccccc3)CC2)cc(C(C)(C)C)c1O
Reply | 4.93

Ask | And then CC(C)(C)c1cc(/C=C/C(=O)NCCC2CCN(Cc3ccccc3Cl)CC2)cc(C(C)(C)C)c1O , what is it?
Reply | 5.01

Ask | And then CC(C)(C)c1cc(/C=C/C(=O)NCCC2CCN(Cc3ccccc3)CC2)cc(C(C)(C)C)c1O , what is it?
Reply | 5.07

Ask | And then CC(C)(C)c1cc(C(=O)CNC2CCN(Cc3ccccc3)CC2)cc(C(C)(C)C)c1O , what is it?
Reply | 4.08

Ask | And then Cc1ccc(CN2CCC(CCNC(=O)/C=C/c3cc(C(C)(C)C)c(O)c(C(C)(C)C)c3)CC2)cc1 , what is it?
Reply | 5.05

Ask | And then CC(C)(C)c1cc(/C=C/C(=O)NCCC2CCN(Cc3cccc(Cl)c3)CC2)cc(C(C)(C)C)c1O , what is it?
Reply | 5.06

Ask | And then CC(C)(C)c1cc(/C=C/C(=O)NCCC2CCN(Cc3ccc(F)cc3)CC2)cc(C(C)(C)C)c1O , what is it?
Reply | 4.95

---

Molecular target: Acetylcholinesterase (Homo sapiens)
Sequence (P22303 whole entry): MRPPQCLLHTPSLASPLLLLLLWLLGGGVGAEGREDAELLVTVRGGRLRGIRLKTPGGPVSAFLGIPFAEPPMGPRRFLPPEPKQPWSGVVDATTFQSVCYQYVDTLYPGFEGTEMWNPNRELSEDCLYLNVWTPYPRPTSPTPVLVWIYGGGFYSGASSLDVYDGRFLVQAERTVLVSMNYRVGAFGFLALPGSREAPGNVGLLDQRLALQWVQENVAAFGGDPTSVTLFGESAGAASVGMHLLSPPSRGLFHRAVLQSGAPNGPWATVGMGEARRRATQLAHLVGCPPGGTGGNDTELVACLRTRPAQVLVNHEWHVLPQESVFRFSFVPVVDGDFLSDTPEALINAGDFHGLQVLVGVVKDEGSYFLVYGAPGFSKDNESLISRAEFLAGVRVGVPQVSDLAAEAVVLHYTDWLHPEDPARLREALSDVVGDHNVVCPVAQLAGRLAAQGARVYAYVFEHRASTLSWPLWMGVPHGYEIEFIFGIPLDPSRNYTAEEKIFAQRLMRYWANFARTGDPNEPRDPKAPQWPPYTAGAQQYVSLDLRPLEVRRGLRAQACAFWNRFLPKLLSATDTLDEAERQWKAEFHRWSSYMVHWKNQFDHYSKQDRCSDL
Test: Inhibition of human erythrocyte AChE using acetylthiocholine chloride as substrate incubated for 5 mins followed by substrate addition measured after 180 secs by Ellman's method
// classify: if (IC50 < 3000 nM) 1 (yes) else 0 (no)

Answered examples (6):
Ask | Is IC50 strictly under 3000 nM for the entry CC(C)(C)c1cc(/C=C/C(=O)NCCC2CCN(Cc3ccccc3)CC2)cc(C(C)(C)C)c1O ?
Reply | 1 (yes)

Ask | And then CC(C)(C)c1cc(C(=O)CNCC2CCN(Cc3ccccc3)CC2)cc(C(C)(C)C)c1O , what is it?
Reply | 1 (yes)

Ask | And then CC(C)(C)c1cc(/C=C/C(=O)NCCC2CCN(Cc3ccc(F)cc3F)CC2)cc(C(C)(C)C)c1O , what is it?
Reply | 1 (yes)

Ask | And then CC(C)(C)c1cc(/C=C/C(=O)NCCC2CCN(Cc3ccc(F)cc3)CC2)cc(C(C)(C)C)c1O , what is it?
Reply | 1 (yes)

Ask | And then Cc1ccccc1CN1CCC(CCNC(=O)/C=C/c2cc(C(C)(C)C)c(O)c(C(C)(C)C)c2)CC1 , what is it?
Reply | 1 (yes)

Ask | And then CC(C)(C)c1cc(/C=C/C(=O)NCCC2CCN(Cc3ccc(Br)cc3)CC2)cc(C(C)(C)C)c1O , what is it?
Reply | 0 (no)

---
Ask | Is IC50 strictly under 3000 nM for the entry CC(C)(C)c1cc(/C=C/C(=O)NCCC2CCN(Cc3cccc(F)c3)CC2)cc(C(C)(C)C)c1O ?
Reply | 1 (yes)

Ask | And then CC(C)(C)c1cc(/C=C/C(=O)NCCC2CCN(Cc3ccccc3Cl)CC2)cc(C(C)(C)C)c1O , what is it?
Reply | 1 (yes)

Ask | And then CC(C)(C)c1cc(/C=C/C(=O)NCCC2CCN(Cc3cccc([N+](=O)[O-])c3)CC2)cc(C(C)(C)C)c1O , what is it?
Reply | 0 (no)

---

The following molecules are listed with their measured Activity (mmolequiv/mmol) values.
Experiment: Antioxidant activity assessed as trolox equivalent of AAPH-induced radical scavenging activity preincubated for 15 mins followed by AAPH addition measured every minute for 120 mins by ORAC-FL based fluorescein assay
Assay type: functional
Give only the figure.

Ask | // lookup Activity (mmolequiv/mmol) for CC(C)(C)c1cc(/C=C/C(=O)NCCC2CCN(Cc3ccccc3)CC2)cc(C(C)(C)C)c1O
Reply | 1.52

---
Ask | // lookup Activity (mmolequiv/mmol) for CC(C)(C)c1cc(/C=C/C(=O)NC2CCN(Cc3ccccc3)CC2)cc(C(C)(C)C)c1O
Reply | 1.42

Ask | And then CC(C)(C)c1cc(C(=O)NCC2CCN(Cc3ccccc3)CC2)cc(C(C)(C)C)c1O , what is it?
Reply | 1.47

Ask | And then CC(C)(C)c1cc(/C=C/C(=O)NCCC2CCN(Cc3cccc(Cl)c3)CC2)cc(C(C)(C)C)c1O , what is it?
Reply | 1.55

Ask | And then O=C(/C=C/c1ccccc1)NCCC1CCN(Cc2ccccc2)CC1 , what is it?
Reply | 0.72

Ask | And then CC(C)(C)c1cc(C(=O)NC2CCN(Cc3ccccc3)CC2)cc(C(C)(C)C)c1O , what is it?
Reply | 1.53

Ask | And then CC(C)(C)c1cc(/C=C/C(=O)NCCC2CCN(Cc3cccc([N+](=O)[O-])c3)CC2)cc(C(C)(C)C)c1O , what is it?
Reply | 1.6

Ask | And then Oc1ccc(/C=C/c2cc(O)cc(O)c2)cc1 [RESVERATROL] , what is it?
Reply | 1.84

Ask | And then CC(C)(C)c1cc(/C=C/C(=O)NCCC2CCN(Cc3ccc(Br)cc3)CC2)cc(C(C)(C)C)c1O , what is it?
Reply | 1.59

---

Experiment: Antioxidant activity assessed as trolox equivalent of AAPH-induced radical scavenging activity preincubated for 15 mins followed by AAPH addition measured every minute for 120 mins by ORAC-FL based fluorescein assay
Format: functional
quantity-measured: Activity (mmolequiv/mmol)
Give only the figure.

Below, each entry is followed by its recorded Activity (mmolequiv/mmol) result.
Ask | // lookup Activity (mmolequiv/mmol) for CC(C)(C)c1cc(CCC(=O)NC2CCN(Cc3ccccc3)CC2)cc(C(C)(C)C)c1O
Reply | 1.62

Ask | And then CC(C)(C)c1cc(C(=O)CNCC2CCN(Cc3ccccc3)CC2)cc(C(C)(C)C)c1O , what is it?
Reply | 0.36

---
Ask | // lookup Activity (mmolequiv/mmol) for CC(C)(C)c1cc(CCC(=O)NCC2CCN(Cc3ccccc3)CC2)cc(C(C)(C)C)c1O
Reply | 0.97

Ask | And then Cc1ccc(CN2CCC(CCNC(=O)/C=C/c3cc(C(C)(C)C)c(O)c(C(C)(C)C)c3)CC2)cc1 , what is it?
Reply | 1.57

Ask | And then COc1ccc(CN2CCC(CCNC(=O)/C=C/c3cc(C(C)(C)C)c(O)c(C(C)(C)C)c3)CC2)cc1 , what is it?
Reply | 1.66

Ask | And then O=C(/C=C/c1ccc(O)cc1)NCCC1CCN(Cc2ccccc2)CC1 , what is it?
Reply | 1.81

Ask | And then CC(C)(C)c1cc(/C=C/C(=O)NCCC2CCN(Cc3ccc(F)cc3)CC2)cc(C(C)(C)C)c1O , what is it?
Reply | 1.51

Ask | And then CC(C)(C)c1cc(/C=C/C(=O)NCCC2CCN(Cc3ccccc3F)CC2)cc(C(C)(C)C)c1O , what is it?
Reply | 1.64

Ask | And then Cc1ccccc1CN1CCC(CCNC(=O)/C=C/c2cc(C(C)(C)C)c(O)c(C(C)(C)C)c2)CC1 , what is it?
Reply | 1.61

---

Target: Acetylcholinesterase (Homo sapiens)
Test: Inhibition of human erythrocyte AChE at 100 uM using acetylthiocholine chloride as substrate incubated for 5 mins followed by substrate addition measured after 180 secs by Ellman's method relative to control
The following molecules are listed with their measured inhibition values.
Provide only the numeric value, understood in %.

Below, each entry is followed by its recorded inhibition result.
Ask | Give the reported inhibition for CC(C)(C)c1cc(CCC(=O)NC2CCN(Cc3ccccc3)CC2)cc(C(C)(C)C)c1O (system: Acetylcholinesterase (Homo sapiens)).
Reply | 30.2

Ask | And then CC(C)(C)c1cc(C(=O)NC2CCN(Cc3ccccc3)CC2)cc(C(C)(C)C)c1O , what is it?
Reply | 20.1

---
Ask | Give the reported inhibition for CC(C)(C)c1cc(CCC(=O)NCC2CCN(Cc3ccccc3)CC2)cc(C(C)(C)C)c1O (system: Acetylcholinesterase (Homo sapiens)).
Reply | 12.6

Ask | And then CC(C)(C)c1cc(/C=C/C(=O)NC2CCN(Cc3ccccc3)CC2)cc(C(C)(C)C)c1O , what is it?
Reply | 27.7
